Values from patent US20210380703A1

# target-or-test-system: ACVR2A on primary human myotubes (human, UniProt P27037 20-513)
# Sequence (P27037 20-513): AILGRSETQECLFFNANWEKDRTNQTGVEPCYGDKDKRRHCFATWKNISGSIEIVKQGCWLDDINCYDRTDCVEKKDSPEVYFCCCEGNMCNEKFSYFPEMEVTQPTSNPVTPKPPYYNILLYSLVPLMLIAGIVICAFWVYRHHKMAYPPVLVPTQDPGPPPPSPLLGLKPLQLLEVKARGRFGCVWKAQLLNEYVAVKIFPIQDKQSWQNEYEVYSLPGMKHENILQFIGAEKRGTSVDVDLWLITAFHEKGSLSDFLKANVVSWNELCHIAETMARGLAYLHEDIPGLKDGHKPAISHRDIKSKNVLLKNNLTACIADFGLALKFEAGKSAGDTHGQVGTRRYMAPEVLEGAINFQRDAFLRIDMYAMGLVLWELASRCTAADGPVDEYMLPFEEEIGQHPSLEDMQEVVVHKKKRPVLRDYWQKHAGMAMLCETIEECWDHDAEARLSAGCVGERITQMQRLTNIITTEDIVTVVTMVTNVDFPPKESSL
# assay-remarks: cell-based or functional assay
# key: entry, value: Phospho-SMAD3 Human Skeletal Muscle GDF8

- binder: "365_A12 (antibody, V domains shown) VH: EVQLLESGGGLVQPGGSLRLSCAASGFTFSSYGMHWVRQAPGKGLEWVAGINYNGGYTSYADSVKGRFTISRDNSKNTLYLQMNSLRAEDTAVYYCAKSANWHDTHLDYWGQGTLVTVSS VL: DIQMTQSPSSLSASVGDRVTITCRASQSILTYVNWYQQKPGKAPKLLIYAATSRHSGVPSRFSGSGSGTDFTLTISSLQPEDFATYYCQQSYENPLTFGGGTKVEIK"
  Phospho-SMAD3 Human Skeletal Muscle GDF8: 0.903
- binder: "365_E02 (antibody, V domains shown) VH: EVQLLESGGGLVQPGGSLRLSCAASGFTFSSYSMNWVRQAPGKGLEWVANINYNGGYTSYADSVKGRFTISRDNSKNTLYLQMNSLRAEDTAVYYCAKSATWHDTHLDYWGQGTLVTVSS VL: DIQMTQSPSSLSASVGDRVTITCRASQSIISYLNWYQQKPGKAPKLLIYAATSRASGVPSRFSGSGSGTDFTLTISSLQPEDFATYYCQQSYENPLTFGGGTKVEIK"
  Phospho-SMAD3 Human Skeletal Muscle GDF8: 0.341
- binder: "368_F03 (antibody, V domains shown) VH: EVQLLESGGGLVQPGGSLRLSCAASGFTFDSYSMNWVRQAPGKGLEWVAGINYNSGYTGYADSVKGRFTISRDNSKNTLYLQMNSLRAEDTAVYYCAKSANWHDTALDYWGQGTLVTVSS VL: DIQMTQSPSSLSASVGDRVTITCRASQSIISYLNWYQQKPGKAPKLVIYAATSRHSGVPSRFSGSGSGTDFTLTISSLQPEDFATYYCQQSYDSPLTFGGGTKVEIK"
  Phospho-SMAD3 Human Skeletal Muscle GDF8: 0.812
- binder: "369_H06 (antibody, V domains shown) VH: EVQLLESGGGLVQPGGSLRLSCAASGFTFSSYGMNWVRQAPGKGLEWVANINYNGGYKSYADSVKGRFTISRDNSKNTLYLQMNSLRAEDTAVYYCARSANWHDTALDYWGQGTLVTVSS VL: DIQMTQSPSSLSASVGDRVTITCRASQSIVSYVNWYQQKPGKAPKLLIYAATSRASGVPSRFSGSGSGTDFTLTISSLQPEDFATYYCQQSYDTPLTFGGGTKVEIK"
  Phospho-SMAD3 Human Skeletal Muscle GDF8: 0.0068
